Data provenance: ChEMBL document CHEMBL1145504

testedTarget: Thymidine kinase (Macacine herpesvirus 1)
protocolDescription: Activity of Herpes B virus recombinant thymidine kinase at 100 uM
runConditions: Macacine alphaherpesvirus 1
Calls of active or inactive are those of the source. The rule behind the calls is not given here.
experimentalReadout: Activity

- smilesRecord: "Nc1nc2c(ncn2COCCO)c(=O)[nH]1"
  testedTarget: "Thymidine kinase (Macacine herpesvirus 1)"
  Activity: "inactive"
- smilesRecord: "Nc1nc(O)c2ncn(CCC(CO)CO)c2n1"
  testedTarget: "Thymidine kinase (Macacine herpesvirus 1)"
  Activity: "72%"
- smilesRecord: "O=c1[nH]c(=O)n([C@H]2C[C@H](O)[C@@H](CO)O2)cc1C(F)(F)F"
  testedTarget: "Thymidine kinase (Macacine herpesvirus 1)"
  Activity: "55%"
- smilesRecord: "CCc1cn([C@H]2C[C@H](O)[C@@H](CO)O2)c(=O)[nH]c1=O"
  testedTarget: "Thymidine kinase (Macacine herpesvirus 1)"
  Activity: "82%"

Noted for Nc1nc2c(ncn2COC(CO)CO)c(=O)[nH]1 : its Activity reads inactive

* * *

A collection of compounds and their measured pEC50
System: Macacine alphaherpesvirus 1
protocolDescription: microbe, parasite or virus in culture
Format: functional, organism-based
runConditions: Macacine alphaherpesvirus 1, Vero
Please report pEC50 as the negative decimal logarithm of the molar concentration, giving only the number.

Worked cases, answers included:
- compound: "O=c1[nH]c(=O)n([C@H]2C[C@H](O)[C@@H](CO)O2)cc1I [IDOXURIDINE]"
  pEC50: 4.95
- compound: "Nc1ncnc2c1ncn2[C@@H]1O[C@H](CO)[C@@H](O)[C@@H]1O [VIDARABINE]"
  pEC50: 4.55
- compound: "Nc1nc2c(ncn2COCCO)c(=O)[nH]1 [ACYCLOVIR]"
  pEC50: 3.95
- compound: "O=c1[nH]c(=O)n([C@H]2C[C@H](O)[C@@H](CO)O2)cc1C(F)(F)F [TRIFLURIDINE]"
  pEC50: 5.77
- compound: "Nc1ccn(C[C@@H](CO)OCP(=O)(O)O)c(=O)n1 [CIDOFOVIR]"
  pEC50: 4.54

Noted for CCc1cn([C@H]2C[C@H](O)[C@@H](CO)O2)c(=O)[nH]c1=O [EDOXUDINE] : its pEC50 reads 4.43

Noted for Nc1nc2c(ncn2COC(CO)CO)c(=O)[nH]1 [GANCICLOVIR] : its pEC50 reads 4.84

Noted for Nc1nc(O)c2ncn(CCC(CO)CO)c2n1 [PENCICLOVIR] : its pEC50 reads 4.77

* * *

testedTarget: Thymidine kinase (Macacine herpesvirus 1, UniProt A3RLP8)
Sequence (A3RLP8 whole entry): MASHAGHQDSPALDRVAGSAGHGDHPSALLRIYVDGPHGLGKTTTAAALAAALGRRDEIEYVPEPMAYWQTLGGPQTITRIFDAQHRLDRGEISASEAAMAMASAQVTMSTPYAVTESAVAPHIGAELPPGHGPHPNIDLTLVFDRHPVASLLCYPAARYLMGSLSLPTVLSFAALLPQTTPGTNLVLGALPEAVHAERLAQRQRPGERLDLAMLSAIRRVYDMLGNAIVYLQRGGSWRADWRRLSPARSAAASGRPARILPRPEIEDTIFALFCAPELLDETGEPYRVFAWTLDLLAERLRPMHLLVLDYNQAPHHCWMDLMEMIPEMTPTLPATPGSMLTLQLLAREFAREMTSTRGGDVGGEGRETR
pIC50: −log10 of the molar value.
Could you label it Y if measured pIC50 is 5 or higher, and N otherwise?

Some solved cases for reference:
- compound: "Nc1nc2c(ncn2CCC(CO)CO)c(=O)[nH]1 [PENCICLOVIR]"
  classLabel: "N"
- compound: "CCCc1cn([C@H]2C[C@H](O)[C@@H](CO)O2)c(=O)[nH]c1=O"
  classLabel: "Y"

Identify whether the reported pIC50 of the following compound is 5 or greater: O=c1[nH]c(=O)n([C@H]2C[C@H](O)[C@@H](CO)O2)cc1C(F)(F)F [TRIFLURIDINE] Y

Identify whether the reported pIC50 of the following compound is 5 or greater: CCc1cn([C@H]2C[C@H](O)[C@@H](CO)O2)c(=O)[nH]c1=O [EDOXUDINE] Y

Identify whether the reported pIC50 of the following compound is 5 or greater: Nc1nc(O)c2ncn(COC(CO)CO)c2n1 [GANCICLOVIR] N

Identify whether the reported pIC50 of the following compound is 5 or greater: Nc1nc2c(ncn2CCCCO)c(=O)[nH]1 N

Identify whether the reported pIC50 of the following compound is 5 or greater: Nc1ccn(C[C@@H](CO)OCP(=O)(O)O)c(=O)n1 [CIDOFOVIR] N

Identify whether the reported pIC50 of the following compound is 5 or greater: O=c1[nH]c(Nc2cccc(C(F)(F)F)c2)nc2nc[nH]c12 Y

Identify whether the reported pIC50 of the following compound is 5 or greater: CCc1cn([C@@H]2C[C@H](O)[C@@H](CO)O2)c(=O)[nH]c1=O N

Identify whether the reported pIC50 of the following compound is 5 or greater: CN(C)CCCCn1cnc2c(O)nc(Nc3ccccc3)nc21 Y

* * *

Test system: Macacine alphaherpesvirus 1
protocolDescription: microbe, parasite or virus in culture
Type: functional, organism-based
runConditions: Macacine alphaherpesvirus 1, Vero
experimentalReadout: pEC50
Please report pEC50 as the negative decimal logarithm of the molar concentration, giving only the number.

Worked cases, answers included:
- compound: "O=c1[nH]c(=O)n([C@H]2C[C@H](O)[C@@H](CO)O2)cc1C(F)(F)F [TRIFLURIDINE]"
  pEC50: 5.47
- compound: "Nc1nc2c(ncn2COCCO)c(=O)[nH]1 [ACYCLOVIR]"
  pEC50: 3.93

Continue with the compound presented below.
Noted for Nc1nc2c(ncn2COC(CO)CO)c(=O)[nH]1 [GANCICLOVIR] : its pEC50 reads 4.63

* * *

protocolDescription: Cytotoxicity against african green monkey Vero cells after 2 days
Format: cell-based
runConditions: chlorocebus sabaeus
A collection of molecules and their measured CC50 at 48 h

- smilesRecord: "Nc1ncnc2c1ncn2[C@@H]1O[C@H](CO)[C@@H](O)[C@@H]1O"
  result: "38 µM"
- smilesRecord: "Nc1nc(O)c2ncn(COC(CO)CO)c2n1"
  result: "666 µM"
- smilesRecord: "O=c1[nH]c(=O)n([C@H]2C[C@H](O)[C@@H](CO)O2)cc1/C=C/Br"
  result: "> 600 µM"
- smilesRecord: "O=c1[nH]c(=O)n([C@H]2C[C@H](O)[C@@H](CO)O2)cc1C(F)(F)F"
  result: "50.6 µM"
- smilesRecord: "O=C(O)P(=O)(O)O"
  result: "> 1 µM"

Noted for CCc1cn([C@H]2C[C@H](O)[C@@H](CO)O2)c(=O)[nH]c1=O : its CC50 at 48 h reads > 780 µM

Noted for O=c1[nH]c(=O)n([C@H]2C[C@H](O)[C@@H](CO)O2)cc1I : its CC50 at 48 h reads 6.8 µM

Noted for Nc1nc2c(ncn2CCC(CO)CO)c(=O)[nH]1 : its CC50 at 48 h reads > 790 µM

* * *

testedTarget: Thymidine kinase (Macacine herpesvirus 1) (UniProt A3RLP8)
protocolDescription: Activity of Herpes B virus recombinant thymidine kinase at 100 uM
runConditions: Macacine alphaherpesvirus 1
Calls of active or inactive are those of the source. No cut-off for these calls is given here.
experimentalReadout: Activity

Worked cases, answers included:
- molecule: "O=c1[nH]c(=O)n(C2C[C@H](O)[C@@H](CO)O2)cc1I (single isomer, unassigned)"
  experimentalReadout: "Activity"
  result: "94%"
- molecule: "O=c1[nH]c(Nc2ccccc2)nc2c1ncn2CCCCO"
  experimentalReadout: "Activity"
  result: "200%"
- molecule: "Cc1cn([C@H]2C[C@H](O)[C@@H](CO)O2)c(=O)[nH]c1=O (stereo in doubt; form 1)"
  experimentalReadout: "Activity"
  result: "130%"
- molecule: "O=c1[nH]c(=O)n(C2C[C@H](O)[C@@H](CO)O2)cc1/C=C/Br (single isomer, unassigned)"
  experimentalReadout: "Activity"
  result: "inactive"
- molecule: "Cc1cn([C@H]2C[C@H](O)[C@@H](CO)O2)c(=O)[nH]c1=O (stereo in doubt; form 2)"
  experimentalReadout: "Activity"
  result: "100%"
- molecule: "O=c1[nH]c(=O)n([C@H]2C[C@H](O)[C@@H](CO)O2)cc1I [IDOXURIDINE]"
  experimentalReadout: "Activity"
  result: "58%"
- molecule: "Nc1ccn(C[C@@H](CO)OCP(=O)(O)O)c(=O)n1 [CIDOFOVIR]"
  experimentalReadout: "Activity"
  result: "inactive"
- molecule: "CCCc1cn([C@H]2C[C@H](O)[C@@H](CO)O2)c(=O)[nH]c1=O"
  experimentalReadout: "Activity"
  result: "31%"

Reported Activity (Thymidine kinase (Macacine herpesvirus 1) (UniProt A3RLP8)) for entry O=c1[nH]c(=O)n([C@H]2C[C@H](O)[C@@H](CO)O2)cc1/C=C/Br [BRIVUDINE] is inactive

Reported Activity (Thymidine kinase (Macacine herpesvirus 1) (UniProt A3RLP8)) for entry Nc1nc2c(ncn2CCCCO)c(=O)[nH]1 is 94%
